Reference source for all entries: the supplement of paper PMC7877785

- experimentalProtocol: self-splicing fitness, log relative to wild type (ln ratio); higher = more splicing; Tetrahymena group I intron in knt gene, E. coli kanamycin selection, DiMSum; sequences stand for … in CUCUCU…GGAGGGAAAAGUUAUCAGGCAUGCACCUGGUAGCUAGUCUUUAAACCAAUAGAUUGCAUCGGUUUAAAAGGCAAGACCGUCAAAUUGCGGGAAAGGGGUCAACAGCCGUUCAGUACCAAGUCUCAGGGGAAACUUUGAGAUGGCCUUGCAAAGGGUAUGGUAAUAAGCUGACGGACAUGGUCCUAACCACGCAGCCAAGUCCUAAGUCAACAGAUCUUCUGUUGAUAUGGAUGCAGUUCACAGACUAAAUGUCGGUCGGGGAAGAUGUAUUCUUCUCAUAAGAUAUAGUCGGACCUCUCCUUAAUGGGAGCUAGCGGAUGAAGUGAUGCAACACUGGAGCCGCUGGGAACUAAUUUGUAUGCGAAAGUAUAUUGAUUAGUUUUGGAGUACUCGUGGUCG;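 further: selection with 25 µg/mL kanamycin versus none on LB agar overnight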
- testSettings: 37 °C
measuredEndpoint: self-splicing fitness (ln)

Sample answers from the record:
itemSequence	self-splicing fitness (ln)
UGUGAGCAAUAUUACGUGGU	-1.88
CGCAAGCAAUAUUACGGUCC	-0.628
GCCUAGCAAUAUUACGCAGA	-2.06
UUCCAGCAAUAUUACGUUUA	-0.59
CCACAGCAAUAUUACGUAAA	-2.06

Reported self-splicing fitness (ln) for CGCCAGCAAUAUUACGCAGA was -2.53

// CCUCAGCAAUAUUACGCGGU : self-splicing fitness (ln) value = -2.98

// field: self-splicing fitness (ln); key: AUUUAGCAAUAUUACGUGGC ; value = -1.69
